Tgt: ROCK1 (Homo sapiens (Human), UniProt Q13464)
Sequence (Q13464 whole entry): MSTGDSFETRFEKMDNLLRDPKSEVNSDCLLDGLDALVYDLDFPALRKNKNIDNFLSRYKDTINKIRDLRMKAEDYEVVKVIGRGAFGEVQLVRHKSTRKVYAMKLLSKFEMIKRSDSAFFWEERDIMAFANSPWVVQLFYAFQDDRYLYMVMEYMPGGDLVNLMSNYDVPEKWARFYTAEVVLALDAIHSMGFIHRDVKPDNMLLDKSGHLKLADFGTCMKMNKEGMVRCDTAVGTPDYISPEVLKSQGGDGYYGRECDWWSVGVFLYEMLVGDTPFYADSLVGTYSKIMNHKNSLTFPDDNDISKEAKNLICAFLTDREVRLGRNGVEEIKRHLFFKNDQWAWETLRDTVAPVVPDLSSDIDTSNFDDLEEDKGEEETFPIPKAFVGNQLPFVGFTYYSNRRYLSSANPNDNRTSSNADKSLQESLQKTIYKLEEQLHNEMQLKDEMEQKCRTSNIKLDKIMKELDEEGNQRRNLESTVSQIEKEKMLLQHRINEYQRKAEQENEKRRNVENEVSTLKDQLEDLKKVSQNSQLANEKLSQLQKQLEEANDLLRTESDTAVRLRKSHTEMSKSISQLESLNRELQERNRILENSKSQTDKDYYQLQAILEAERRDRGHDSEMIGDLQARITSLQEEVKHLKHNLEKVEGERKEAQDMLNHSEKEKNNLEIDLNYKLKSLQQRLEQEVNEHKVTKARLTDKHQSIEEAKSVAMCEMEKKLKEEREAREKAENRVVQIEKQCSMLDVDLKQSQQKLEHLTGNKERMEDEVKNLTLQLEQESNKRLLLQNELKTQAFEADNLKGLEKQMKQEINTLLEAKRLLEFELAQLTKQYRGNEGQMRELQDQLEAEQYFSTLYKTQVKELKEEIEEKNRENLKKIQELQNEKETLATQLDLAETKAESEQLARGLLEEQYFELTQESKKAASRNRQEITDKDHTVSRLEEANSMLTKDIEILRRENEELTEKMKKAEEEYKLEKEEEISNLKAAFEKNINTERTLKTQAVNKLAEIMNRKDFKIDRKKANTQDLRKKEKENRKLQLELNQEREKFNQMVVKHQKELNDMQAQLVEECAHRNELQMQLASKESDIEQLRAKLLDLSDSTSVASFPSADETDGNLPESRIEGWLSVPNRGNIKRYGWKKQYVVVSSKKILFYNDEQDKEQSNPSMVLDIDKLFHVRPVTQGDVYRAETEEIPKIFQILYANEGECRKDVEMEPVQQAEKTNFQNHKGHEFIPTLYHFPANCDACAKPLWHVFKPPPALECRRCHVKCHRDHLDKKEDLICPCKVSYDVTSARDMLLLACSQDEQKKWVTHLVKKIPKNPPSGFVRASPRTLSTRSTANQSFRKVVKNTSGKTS
Assay overview: Z-lyte FRET assay to measure kinase inhibition, ROCK1
Assay type: biochemical
Test context: read-out: ROCK1 % inhibition @ 100 μM, 100 μM compound
Property label: inhibition at 100 µM (%)

**Query** Recorded inhibition at 100 µM of COC[C@H](NC(=O)c1cccc2c1ccn2-c1ccnc(N)n1)c1ccccc1 , please.
**Result** 91

**Query** Now try COc1cccc(CN(C)C(=O)c2cccc3c2ccn3-c2ccnc(N)n2)c1 .
**Result** 89

**Query** Moving on to Nc1nccc(Nc2cccc(Cl)c2)n1
**Result** 89

**Query** Would you kindly repeat that for COc1cccc([C@@H](C)NC(=O)c2cccc3c2ccn3-c2ccnc(N)n2)c1 ?
**Result** 92

**Query** And what about the molecule CC[C@H](NC(=O)c1cccc2c1ccn2-c1ccnc(N)n1)c1ccccc1 ?
**Result** 88

* * *

Tgt: UniProt:Q13464
Assay overview: Z-lyte FRET assay to measure kinase inhibition, ROCK1
Type: biochemical
Test context: read-out: ROCK1 IC50
pIC50: −log10 of the molar value.
Property label: pIC50

Solved cases (3 shown):
**Query** Record request: pIC50 value, item COc1cccc(CN(C)C(=O)c2cccc3c2ccn3-c2ccnc(N)n2)c1
**Result** 4.82

**Query** Same for Cc1ccc2c(ccn2-c2ccnc(N)n2)c1
**Result** 5.08

**Query** Now the same for Nc1nccc(-n2ccc3ccc(Cl)cc32)n1
**Result** 5.92

I = Nc1nccc(-n2ccc3c(C(=O)NCc4ccccc4F)cccc32)n1
II = CC(=O)Nc1cccc(CNC(=O)c2cccc3c2ccn3-c2ccnc(N)n2)c1
**Query** Given I and given II , which shows the smaller recorded pIC50? Kindly give the label for the entry you pick.
**Result** I

I = Nc1nccc(Nc2cccc(Cl)c2)n1
II = CC[C@H](NC(=O)c1cccc2c1ccn2-c1ccnc(N)n1)c1ccccc1
**Query** Given the two records I and II , choose the one whose pIC50 value is lower. Please indicate the selected item by its label.
**Result** II
(II: 5.01, I: 5.24)

1 = C[C@H](NC(=O)c1cccc2c1ccn2-c1ccnc(N)n1)c1ccccc1
2 = Nc1nccc(N2CCCc3ccccc32)n1
3 = Nc1nccc(Nc2ccccc2)n1
4 = CC1Cc2ccccc2N1c1ccnc(N)n1 (stereo not drawn)
5 = Nc1nccc(-n2ccc3c(OCc4ccccc4)cccc32)n1
**Query** Rank the items in ascending order with respect to pIC50. Answer by writing out the labels in the requested order.
**Result** 3, 2, 1, 4, 5

I = CC1Cc2cc(Cl)ccc2N1c1ccnc(N)n1 (stereo not drawn)
II = CS(=O)(=O)Nc1cccc(CNC(=O)c2cccc3c2ccn3-c2ccnc(N)n2)c1
III = CC(=O)N(C)c1cccc(CNC(=O)c2cccc3c2ccn3-c2ccnc(N)n2)c1
IV = COc1cccc(CC(=O)Nc2cccc3c2ccn3-c2ccnc(N)n2)c1
**Query** Hey, quick one: sort these by pIC50, low to high? Present the labels in the sequence the task asks for.
**Result** III, IV, II, I

* * *

Tgt: ROCK1 (Homo sapiens (Human))
Assay overview: Z-lyte FRET assay to measure kinase inhibition, ROCK1
Assay type: biochemical
Test context: read-out: ROCK1 % inhibition @ 50 μM, 50 μM compound
Property label: inhibition at 50 µM (%)

Solved cases (3 shown):
**Query** Item NC(=O)c1cccc(Nc2ccnc(N)n2)c1 has what recorded inhibition at 50 µM?
**Result** 54

**Query** Again, but for Nc1nccc(-n2ccc3cc(OCc4ccccc4)ccc32)n1
**Result** 76

**Query** Likewise for Nc1nccc(N2CCc3cc(F)ccc32)n1 ?
**Result** 89

A = Nc1nccc(N2CCc3cc(Cl)ccc32)n1
B = Nc1nccc(Nc2ccc3cc[nH]c3c2)n1
C = Nc1nccc(-n2ccc3ccc(OCc4ccccc4)cc32)n1
**Query** Could you please order the items by inhibition at 50 µM, going from the lowest number to the highest? In your reply, arrange the labels in the requested order.
**Result** C, B, A
(C: -5%, B: 23%, A: 73%)

I = Nc1nccc(-n2ccc3c(C(=O)NCc4ccccc4)cccc32)n1
II = NS(=O)(=O)c1ccc(Nc2ncnc3nc[nH]c23)cc1
**Query** Between I and II , which one has the lower reported inhibition at 50 µM value? Answer with the label corresponding to your selection.
**Result** II
(II: 54%, I: 92%)

I = COC(=O)c1ccc(Nc2ccnc(N)n2)cc1
II = Nc1nccc(-n2ccc3c(C(=O)Nc4ccccc4)cccc32)n1
**Query** Sorting ascending by inhibition at 50 µM, which comes first: I or II ? I would appreciate it if you answered with the label of your choice.
**Result** II

1 = Nc1nccc(-n2ccc3ccccc32)n1
2 = Nc1nccc(Oc2ccc(S(N)(=O)=O)cc2)n1
**Query** In terms of reported inhibition at 50 µM, does 1 or 2 have the smaller number? Please indicate the selected item by its label.
**Result** 2
(2: -0.3%, 1: 88%)

* * *

Tgt: UniProt Q13464
Assay overview: Z-lyte FRET assay to measure kinase inhibition, ROCK1
Format: biochemical
Test context: read-out: ROCK1 % inhibition @ 50 μM, 50 μM compound
Property label: inhibition at 50 µM (%)

Recorded results for 5 compounds are shown here.
**Query** Entry Nc1nccc(Nc2ccc(S(=O)(=O)N3CCN(c4cccc(C(F)(F)F)c4)CC3)cc2)n1 has what inhibition at 50 µM?
**Result** -0.3

**Query** Also check Nc1nccc(N2CCc3cc([N+](=O)[O-])ccc32)n1
**Result** 24

**Query** Try this compound too: Nc1nccc(Nc2cccc([N+](=O)[O-])c2)n1
**Result** 91

**Query** And then Nc1nccc(-n2ccc3c(OCc4ccc(Cl)cc4)cccc32)n1 , what is it?
**Result** 71

**Query** What do you have for Nc1nccc(-n2ccc3c(OCc4ccccc4)cccc32)n1 ?
**Result** 80

a = Nc1nccc(-n2ccc3c(C(=O)NCc4ccccc4Cl)cccc32)n1
b = Nc1nccc(N2CCc3ccccc3C2)n1
**Query** Pick one: a or b . Which one has the lower reported inhibition at 50 µM? // caller expects the label of the chosen entry
**Result** b

* * *

Tgt: ROCK2 (Homo sapiens (Human), UniProt O75116)
Sequence (O75116 whole entry, species assumed): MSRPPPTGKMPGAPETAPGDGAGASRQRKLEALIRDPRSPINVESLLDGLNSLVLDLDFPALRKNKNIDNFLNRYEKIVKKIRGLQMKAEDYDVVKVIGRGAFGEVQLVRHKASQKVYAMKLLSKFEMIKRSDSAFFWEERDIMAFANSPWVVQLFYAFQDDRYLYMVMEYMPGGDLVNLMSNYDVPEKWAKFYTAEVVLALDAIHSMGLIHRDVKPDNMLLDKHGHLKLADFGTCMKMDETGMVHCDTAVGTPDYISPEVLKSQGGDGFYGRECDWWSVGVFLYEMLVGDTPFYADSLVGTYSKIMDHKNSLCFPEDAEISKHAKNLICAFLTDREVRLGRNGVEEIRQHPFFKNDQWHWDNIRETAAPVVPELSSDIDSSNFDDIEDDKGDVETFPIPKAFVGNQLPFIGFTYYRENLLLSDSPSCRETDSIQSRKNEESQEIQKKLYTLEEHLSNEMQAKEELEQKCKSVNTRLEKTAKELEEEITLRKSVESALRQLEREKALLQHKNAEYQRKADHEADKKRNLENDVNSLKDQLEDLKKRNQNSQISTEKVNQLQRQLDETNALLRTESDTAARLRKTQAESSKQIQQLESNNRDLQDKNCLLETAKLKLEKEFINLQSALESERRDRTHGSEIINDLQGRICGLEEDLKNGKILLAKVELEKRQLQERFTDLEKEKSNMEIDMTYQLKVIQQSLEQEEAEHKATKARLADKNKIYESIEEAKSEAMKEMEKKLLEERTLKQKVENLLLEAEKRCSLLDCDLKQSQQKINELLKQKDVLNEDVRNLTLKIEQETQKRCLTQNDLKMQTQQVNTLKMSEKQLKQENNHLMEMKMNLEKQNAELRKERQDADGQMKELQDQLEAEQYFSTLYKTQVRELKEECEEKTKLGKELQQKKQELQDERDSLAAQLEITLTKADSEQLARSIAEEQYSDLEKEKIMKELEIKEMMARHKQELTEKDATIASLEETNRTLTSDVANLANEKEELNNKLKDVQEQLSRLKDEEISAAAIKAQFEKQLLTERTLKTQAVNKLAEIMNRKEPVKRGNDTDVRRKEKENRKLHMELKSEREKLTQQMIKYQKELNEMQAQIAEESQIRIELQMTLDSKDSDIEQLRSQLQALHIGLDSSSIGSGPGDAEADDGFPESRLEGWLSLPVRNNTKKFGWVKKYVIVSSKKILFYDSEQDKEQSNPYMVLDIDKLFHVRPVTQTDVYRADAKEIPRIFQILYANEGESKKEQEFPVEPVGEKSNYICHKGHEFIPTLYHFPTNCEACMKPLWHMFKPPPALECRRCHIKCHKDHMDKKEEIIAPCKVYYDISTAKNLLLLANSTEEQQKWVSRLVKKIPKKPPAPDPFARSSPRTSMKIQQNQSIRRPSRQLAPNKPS
Assay overview: Z-lyte FRET assay to measure kinase inhibition, ROCK2
Type: biochemical
Property label: IC50 (µM)

**Query** Record request: IC50 value, item COc1ccc2ccn(-c3ccnc(N)n3)c2c1
**Result** 4.9

**Query** // next record Nc1nccc(-n2cnc3ccccc32)n1
**Result** 37.4

**Query** Lookup CSc1ccc(Nc2ccnc(N)n2)cc1
**Result** 17.1

**Query** Queued: CC1Cc2ccccc2N1c1ccnc(N)n1 (stereo not drawn)
**Result** 1.9

1 = Nc1nccc(N2CCc3cc(S(N)(=O)=O)ccc32)n1
2 = Nc1nccc(-n2ccc3c(OCCc4ccccc4)cccc32)n1
**Query** Which of the two items, 1 and 2 , has the greater recorded IC50? State your choice using its label.
**Result** 2

* * *

Tgt: ROCK2 (Homo sapiens (Human))
Assay overview: Z-lyte FRET assay to measure kinase inhibition, ROCK2
Assay type: biochemical
Property label: IC50 (µM)

Example compounds with recorded IC50:
**Query** Reported IC50, compound C[C@H](NC(=O)c1cccc2c1ccn2-c1ccnc(N)n1)c1ccccc1 : ____
**Result** 1.2

**Query** Next entry: Nc1nccc(-n2ccc3c(C(=O)NCc4cccc(Cl)c4)cccc32)n1
**Result** 0.72

**Query** Repeat for the following compound: Nc1nccc(N2CCc3cc(F)ccc32)n1
**Result** 0.7

**Query** Follow-up entry: Nc1nccc(-n2ccc3c(C(=O)NCc4ccc(F)cc4)cccc32)n1
**Result** 1.1

**Query** Item: COC(=O)c1ccc(Nc2ccnc(N)n2)cc1
**Result** 13.9

**Query** Please answer likewise for Nc1nccc(-n2ccc3cc(OCc4ccccc4)ccc32)n1
**Result** 16.3

**Query** Please do the same for COc1ccc2c(ccn2-c2ccnc(N)n2)c1 as well.
**Result** 0.25

**Query** Next up: CC1Cc2cc([N+](=O)[O-])ccc2N1c1ccnc(N)n1 (stereo not drawn)
**Result** 0.4

A = Nc1nccc(N2CCc3cc(Br)ccc32)n1
B = NC(=O)c1cccc(Nc2ccnc(N)n2)c1
**Query** For A and B , which recorded IC50 is lower? Respond with the label that goes with your answer.
**Result** A

* * *

Tgt: ROCK1 (Homo sapiens (Human))
Assay overview: Z-lyte FRET assay to measure kinase inhibition, ROCK1
Assay type: biochemical
Test context: read-out: ROCK1 IC50
Property label: IC50 (µM)

Example entries and their recorded answers appear below.
**Query** # value lookup — system ROCK1 (Homo sapiens (Human)), readout IC50, item COc1ccccc1CNC(=O)c1cccc2c1ccn2-c1ccnc(N)n1
**Result** 6

**Query** How about CCOc1cccc(CNC(=O)c2cccc3c2ccn3-c2ccnc(N)n2)c1 ?
**Result** 3.37

A = Nc1nccc(Nc2cccc([N+](=O)[O-])c2)n1
B = CC[C@@H](NC(=O)c1cccc2c1ccn2-c1ccnc(N)n1)c1ccccc1
**Query** Rank A against B by their IC50 values and give the higher one. Pick one and reply with its label.
**Result** A
(A: 4.86 µM, B: 1.77 µM)
